// data source = PubChem BioAssay (EPA / NIEHS)

- ASSAY COMMENT: BSK_SAg_PBMCCytotoxicity: PBMC Cytotoxicity Assessment in the BioMAP Diversity Plus: SAg Assay (AID 2283093);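 further: PBMC viability measured as Alamar Blue reduction fluorescence at 546/580 nm; fitted both ways against DMSO so a hit may be loss or gain of signal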
- CONDITIONS: primary human HUVEC with PBMC
Calls of active or inactive are those of the source. How the source made its calls: active means hit-call score of the fitted dose curve at least 0.9, where 1 is the maximum; inactive means score below 0.9.
Reply using exactly one outcome from active, inactive

Before answering, review these 5 worked examples.
Task item: Which result was noted for this compound in the test: Cc1occc1C(=O)Nc1ccc(C(=O)N2CCC(F)(F)/C(=C\C(=O)N3CCC(N4CCCCC4)CC3)c3ccccc32)cc1
Reply: inactive

Task item: Which result was noted for this compound in the test: CC(C)(c1cc(Br)c(O)c(Br)c1)c1cc(Br)c(O)c(Br)c1
Reply: active

Task item: Which result was noted for this compound in the test: O=C1c2ccccc2C(=O)N1CCc1noc(-c2ccc(CN3CCCCCC3)s2)n1
Reply: inactive

Task item: Which result was noted for this compound in the test: CCCCOC(=O)CC(CC(=O)OCCCC)(OC(C)=O)C(=O)OCCCC
Reply: inactive

Task item: Which result was noted for this compound in the test: O=c1ccc2ccccc2o1
Reply: inactive

Continuing:
Task item: Which result was noted for this compound in the test: OC12N=C(c3ccccc3)SC1Cc1cc(Cl)ccc12 (stereo unspecified)
Reply: active

====

- TARGET OR SYSTEM: Estrogen receptor (Homo sapiens)
- ASSAY COMMENT: ATG_ERa_TRANS: Attagene TRANS-FACTORIAL HepG2 Assay for human Estrogen Receptor alpha (ERa) (AID 2282970)
- CONDITIONS: HepG2 Attagene TRANS ERa GAL4 reporter, mRNA
- Protocol: ATG_TRANS is a cell-based, multiplexed-readout assay that uses HepG2, a human liver cell line, with measurements taken at 24 hours after chemical dosing in a 24-well plate.ATG_ERa_TRANS is one of 30 assay component(s) measured or calculated from the ATG_TRANS assay. […] This assay endpoint, ATG_ERa_TRANS, was analyzed in the positive analysis fitting direction relative to DMSO as the negative control and baseline of activity. […]
Records with an inconclusive call do not appear. Activity calls are given as the source filed them. How the source made its calls: active means hit-call score of the fitted dose curve at least 0.9, where 1 is the maximum; inconclusive means response in the unintended direction; inactive means score below 0.9.
Reply using exactly one outcome from active, inactive

Task item: Which result was noted for this compound in the test: CN(C[C@@H](CC[N+]12CCC(C3CCCCC3)(CC1)CC2)c1ccc(Cl)c(Cl)c1)C(=O)c1cc(C(F)(F)F)cc(C(F)(F)F)c1
Reply: inactive

Task item: Which result was noted for this compound in the test: Cc1cc(F)ccc1-c1cc(N2CC[C@@H](O)[C@H]2CO)ncc1N(C)C(=O)C(C)(C)c1cc(C(F)(F)F)cc(C(F)(F)F)c1
Reply: inactive

Continuing:
Task item: Which result was noted for this compound in the test: Cc1c2ccccc2c(C)c2c1ccc1ccccc12
Reply: active

Task item: Which result was noted for this compound in the test: Cc1cccc2ccccc12
Reply: inactive

Task item: Which result was noted for this compound in the test: NCc1cccc(C2CCN(C(=O)c3ccc(C#Cc4ccccc4F)o3)CC2)c1
Reply: active

Task item: Which result was noted for this compound in the test: COc1cccc([C@H](O)C2CCN(CCc3ccc(F)cc3)CC2)c1OC
Reply: inactive

Task item: Which result was noted for this compound in the test: O=CCCCC=O
Reply: inactive

Task item: Which result was noted for this compound in the test: CCCCCCCCCCCCO
Reply: inactive

Task item: Which result was noted for this compound in the test: CCN(CC)C(=O)c1cc(S(=O)(=O)Cc2ccccc2)c(N2CCC(c3ccccc3)CC2)cc1N(CC)CCN(C)C
Reply: inactive

Task item: Which result was noted for this compound in the test: CCCCCCCCN(C)CCCCCCCC
Reply: active

Task item: Which result was noted for this compound in the test: CCCCCc1ccc(N)cc1
Reply: active

Task item: Which result was noted for this compound in the test: O=c1[nH]sc2ccccc12
Reply: inactive

Task item: Which result was noted for this compound in the test: COCC(C)OCC(C)OCC(C)O (stereo not drawn)
Reply: inactive

Task item: Which result was noted for this compound in the test: CCCOC(=O)c1cc(O)c(O)c(O)c1
Reply: active

Task item: Which result was noted for this compound in the test: COc1cc(C(=O)NC2CCN(C)CC2)ccc1Nc1ncc2c(n1)N(C1CCCC1)CC(F)(F)C(=O)N2C
Reply: inactive

Task item: Which result was noted for this compound in the test: c1ccc(C[n+]2cccc3ccccc32)cc1
Reply: inactive

Task item: Which result was noted for this compound in the test: OC12N=C(c3ccccc3)SC1Cc1cc(Cl)ccc12 (stereo not drawn)
Reply: active

Task item: Which result was noted for this compound in the test: CC(=O)N1CCN(c2ccc(OC[C@H]3CO[C@](Cn4ccnc4)(c4ccc(Cl)cc4Cl)O3)cc2)CC1
Reply: inactive

Task item: Which result was noted for this compound in the test: CCCCCCCCOC(=O)c1cc(O)c(O)c(O)c1
Reply: active

Task item: Which result was noted for this compound in the test: CCCC(=O)OCCC(C)C
Reply: inactive

====

- ASSAY COMMENT: BSK_3C_VCAM1: BioMAP Diversity Plus: 3C Assay for Vascular cell adhesion molecule 1 (VCAM1) Biomarker Activity (AID 2282999)
- CONDITIONS: BioMAP 3C HUVEC, VCAM1 ELISA, cytokine-stimulated; actives raise or lower the signal
Active and inactive are the calls of the source. Rule for the calls: active = hit-call score of the fitted dose curve at least 0.9, where 1 is the maximum; inactive = score below 0.9.
Reply using exactly one outcome from label 1 (active), label 0 (inactive)

Before answering, review these 4 worked examples.
Task item: Which result was noted for this compound in the test: CC(C)(O)c1ccc(CNC(=O)c2cccnc2Oc2ccc3nonc3c2)cc1
Reply: label 0

Task item: Which result was noted for this compound in the test: Cc1occc1C(=O)Nc1ccc(C(=O)N2CCC(F)(F)/C(=C\C(=O)N3CCC(N4CCCCC4)CC3)c3ccccc32)cc1
Reply: label 0

Task item: Which result was noted for this compound in the test: Cc1cn([C@H]2C[C@H](N=[N+]=[N-])[C@@H](CO)O2)c(=O)[nH]c1=O
Reply: label 0

Task item: Which result was noted for this compound in the test: CN(C)c1ccc(C(=C2C=CC(=[N+](C)C)C=C2)c2ccc(N(C)C)cc2)cc1
Reply: label 1

Continuing:
Task item: Which result was noted for this compound in the test: CCCCCCCCCCCCO
Reply: label 1

Task item: Which result was noted for this compound in the test: O=c1ccc2ccccc2o1
Reply: label 0

====

- Read-out: catalase (CAT), CAT (gene 847)
- ASSAY COMMENT: LTEA_HepaRG_CAT: Life Technologies and Expression Analysis (LTEA) Assay for catalase (CAT) using HepaRG (AID 2283452);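 on AC50: TaqMan qRT-PCR signal normalized to ACTB GAPDH and POLR2A housekeeping genes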
- CONDITIONS: mRNA level, 48 h; actives raise or lower the signal
Activity calls are given as the source filed them. Rule for the calls: active = hit-call score of the fitted dose curve at least 0.9, where 1 is the maximum; inactive = score below 0.9.
MEASURED PROPERTY: AC50

Measured AC50, CCOC(=O)O[C@H](C)OC(=O)c1ccc2c(c1)cc(C(=O)NC1CCN(C(C)C)CC1)n2Cc1cc(-c2ccc(Cl)s2)on1 : inactive

Measured AC50, Cc1occc1C(=O)Nc1ccc(C(=O)N2CCC(F)(F)/C(=C\C(=O)N3CCC(N4CCCCC4)CC3)c3ccccc32)cc1 : 31.2 µM (active)

Measured AC50, CCCCCCCCCCCO : inactive

Measured AC50, O=C(O)c1ccccc1C(=O)OCc1ccccc1 : inactive

// batch mode: one AC50 value per listed entry
1. Cc1oc2c(NC(=O)c3c(Cl)cccc3Cl)cccc2c1C(C)(C)O
2. O=C1O[C@H]([C@@H](O)CO)C(O)=C1O
3. CCN(Cc1cccnc1)C(=O)c1cccc(Cl)c1[C@]1(C)C(=O)N(Cc2ccc(OC)cc2OC)c2ccc(Cl)cc21
4. O=C(Nc1ccc(Cl)cc1)Nc1ccc(Cl)c(Cl)c1

Reply:
["29.3 µM (active)", "inactive", "18.4 µM (active)", "16.6 µM (active)"]

====

- Read-out: Matrix Metallopeptidase 1 (MMP1), MMP1 (gene 4312)
- ASSAY COMMENT: BSK_BE3C_MMP1: BioMAP Diversity Plus: BE3C Assay for Matrix Metallopeptidase 1 (MMP1) Biomarker Activity (AID 2283024)
- CONDITIONS: primary human bronchial epithelial cells; actives raise or lower the signal
Active and inactive are the calls of the source. The calls were made as follows: active = hit-call score of the fitted dose curve at least 0.9, where 1 is the maximum; inactive = score below 0.9.
MEASURED PROPERTY: AC50

Record excerpt, results attached:
Measured AC50, Cc1ccc2oc(CN(Cc3ccccc3)C(=O)Nc3c(F)cc(F)cc3F)c(-c3ccc(Cl)cc3)c2c1 : inactive

Measured AC50, O=C1c2ccccc2C(=O)N1CCc1noc(-c2ccc(CN3CCCCCC3)s2)n1 : inactive

Measured AC50, CCN(Cc1cccnc1)C(=O)c1cccc(Cl)c1[C@]1(C)C(=O)N(Cc2ccc(OC)cc2OC)c2ccc(Cl)cc21 : inactive

Measured AC50, Cc1c2ccccc2c(C)c2c1ccc1ccccc12 : 20 µM (active)

Measured AC50, O=C(O)Cc1cc(I)c(Oc2ccc(O)c(I)c2)c(I)c1 : 6.29 µM (active)

// batch mode: one AC50 value per listed entry
1. CN1C(=O)CC[C@H]1c1cccnc1
2. CCCCCCCCCCCO
3. O=CCCCC=O
4. CC(=O)N1CCN(c2ccc(OC[C@H]3CO[C@](Cn4ccnc4)(c4ccc(Cl)cc4Cl)O3)cc2)CC1
5. Oc1ccc2ccccc2c1

Reply:
1. inactive
2. inactive
3. inactive
4. inactive
5. inactive

// batch mode: one AC50 value per listed entry
1. CCCCCCCCCCCCO
2. O=C(OCCCCCCOC(=O)c1ccccc1)c1ccccc1
3. Cc1oc2c(NC(=O)c3c(Cl)cccc3Cl)cccc2c1C(C)(C)O
4. CC1(C)NC(=O)N(c2ccc([N+](=O)[O-])c(C(F)(F)F)c2)C1=O
5. CC(C)(c1cc(Br)c(O)c(Br)c1)c1cc(Br)c(O)c(Br)c1
6. O=C=NCCCCCCN=C=O
7. CC[C@H](NC(=O)c1cc(F)ccc1NS(=O)(=O)c1cccc2cccnc12)c1ccccc1
8. OCCO

Reply:
1. inactive
2. inactive
3. 14.3 µM (active)
4. inactive
5. 9.3 µM (active)
6. inactive
7. inactive
8. inactive

// batch mode: one AC50 value per listed entry
1. CCCCCCCC[Si](OCC)(OCC)OCC
2. CC(C)(O)c1ccc(CNC(=O)c2cccnc2Oc2ccc3nonc3c2)cc1

Reply:
1. inactive
2. inactive
